Each entry below carries its recorded EC50.
system.tested: T1, PCSK9 D374Y mutant protein inserted with biotin receiving peptide BP15 and His-tag: PCSK9-D374Y-BP15-His6 (human, UniProt Q8NBP7 153-692; A8T644 31-152, biotin on the BP15 biotin receiving peptide)
T1 construct: also called PCSK9-Y; mutant PCSK9
experiment: ELISA, biotin PCSK9-Y on streptavidin plate

binder: h011-3191 (antibody, V domains shown) VH: QVQLVQSGAEVKKPGASVKVSCKASGYTFTGYTIHWVRQAPGQGLEWMGYIVPSSTYTKFNQKFKDRVTMTRDTSISTAYMELSRLRSDDTAVYYCARERIYSNYWFFDVWGQGTTVTVSS VL: DIVMTQSPSSLSASVGDRVTITCKASQNVYTAVAWYQQKPGKSPKLLIYSASNRYTGVPSRFSGSGSGTDFTLTISSLQPEDFATYFCQQYSSYPYTFGGGTKVEIK
output.unit: ng/mL
EC50: 6.6
//
binder: h011-3073 (antibody, V domains shown) VH: QVQLVQSGAEVKKPGASVKVSCKASGYTFTGYTIHWVRQAPGQGLEWMGYINPSSTYTKFNQKFKDRVTMTRDTSISTAYMELSRLRSDDTAVYYCARENIFSNYWFFDRWGQGTTVTVSS VL: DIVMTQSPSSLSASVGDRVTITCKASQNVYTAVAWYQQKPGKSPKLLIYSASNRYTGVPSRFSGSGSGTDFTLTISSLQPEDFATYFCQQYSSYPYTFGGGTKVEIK
output.unit: ng/mL
EC50: 12.3
